Every entry's value here was drawn from paper PMC5465072.

Below, each of the substances is paired with its reported IC50 value.
# target-under-test: His6-PA488–735 / GST-CMG2_38–218 interaction (UniProt P13423+P58335)
# Sequence (P13423 517-764 limits assumed): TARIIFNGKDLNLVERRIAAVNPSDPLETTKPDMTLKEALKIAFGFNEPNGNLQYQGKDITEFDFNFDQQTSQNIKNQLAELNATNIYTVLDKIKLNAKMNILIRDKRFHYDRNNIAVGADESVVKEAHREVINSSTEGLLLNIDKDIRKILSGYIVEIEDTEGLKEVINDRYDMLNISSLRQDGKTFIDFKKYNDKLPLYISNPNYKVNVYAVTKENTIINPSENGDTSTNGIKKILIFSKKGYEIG
# Sequence (P58335 38-218 limits assumed): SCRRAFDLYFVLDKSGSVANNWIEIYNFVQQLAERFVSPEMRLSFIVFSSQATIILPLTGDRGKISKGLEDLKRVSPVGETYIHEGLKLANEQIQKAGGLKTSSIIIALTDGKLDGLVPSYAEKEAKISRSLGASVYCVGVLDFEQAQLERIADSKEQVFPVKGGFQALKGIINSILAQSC
# assay-name: biochemical
# Design: species or system Bacillus anthracis PA / human CMG2
Ends that are not written are not given here.
quantity: IC50

INSERT INTO assay_data (substance, reported_value) VALUES
  ('CMNHFPA [CMNHFPA]', '49.8 µM'),
  ('HPCNAMF [HPCNAMF]', '153 µM'),
  ('H-CMNHAPA-OH [CMNHAPA]', '522 µM');
